B1: USP39 (parent)
chain: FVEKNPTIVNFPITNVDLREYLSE

variants of: B1; test: protein stability index of a GFP-peptide fusion (GPS, HEK-293T) (PSI 1-6); higher = more stable; conditions: c terminus: a fixed tail appended;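 further: lentivirally expressed fusions sorted by FACS into six bins by GFP to DsRed ratio, PSI derived from sequencing read proportions per bin multiplied by bin number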
Lab note: compare protein stability index against 2. Equal or greater, write yes. Smaller, write no.

Field: example entries. Status: answers known.
Mutation Descriptor: N5P
Class Name: no
//
Mutation Descriptor: L18M
Class Name: no
//
Mutation Descriptor: V16R
Class Name: yes
//
Mutation Descriptor: L22A
Class Name: yes
//
Mutation Descriptor: E3K
Class Name: no

Next, consider the following variant.
INPUT: Tell me whether protein stability index is at least 2 here: E24T
OUTPUT: no
